Test system: Pseudomonas
Test: Antibacterial activity against Pseudomonas phaseolicola GSPB 2828 at 100 ug/ml after 24 hr by agar diffusion method
Type: functional
Conditions: GSPB 2828, 24 h, read-out: DIZ
Would you please tag the item Fulfilled when its zone of inhibition at 100 µg/mL is 20 mm or above, and Not fulfilled when it is below?

Query: Form field: zone of inhibition at 100 µg/mL at least 20 mm? Entry: Cc1cccc2c1oc(=O)c1cc3c(nc12)-c1ccccc1CC3
Response: Not fulfilled

Query: Form field: zone of inhibition at 100 µg/mL at least 20 mm? Entry: Cc1ccc2oc(=O)c3cc4c(nc3c2c1)CCCC4
Response: Not fulfilled

Query: Form field: zone of inhibition at 100 µg/mL at least 20 mm? Entry: O=C(N[C@H](CO)[C@H](O)c1ccc([N+](=O)[O-])cc1)C(Cl)Cl
Response: Fulfilled

Query: Form field: zone of inhibition at 100 µg/mL at least 20 mm? Entry: O=c1oc2ccccc2c2nc3c(cc12)CCC3
Response: Not fulfilled

Query: Form field: zone of inhibition at 100 µg/mL at least 20 mm? Entry: O=c1oc2ccc(Cl)cc2c2nc3c(cc12)CCCC3
Response: Not fulfilled

Query: Form field: zone of inhibition at 100 µg/mL at least 20 mm? Entry: CC(=O)OCC1=C(C(=O)O)N2C(=O)[C@@H](NC(=O)Cc3cccs3)[C@H]2SC1
Response: Fulfilled

Query: Form field: zone of inhibition at 100 µg/mL at least 20 mm? Entry: O=c1oc2ccc(Cl)cc2c2nc3c(cc12)CCC3
Response: Not fulfilled

Query: Form field: zone of inhibition at 100 µg/mL at least 20 mm? Entry: Cc1cccc2c1oc(=O)c1cc3c(nc12)CCC3
Response: Not fulfilled

Query: Form field: zone of inhibition at 100 µg/mL at least 20 mm? Entry: O=c1oc2ccccc2c2nc3c(cc12)CCc1ccccc1-3
Response: Not fulfilled

Query: Form field: zone of inhibition at 100 µg/mL at least 20 mm? Entry: O=c1oc2ccc(Cl)cc2c2nc3c(cc12)CCc1ccccc1-3
Response: Not fulfilled

Query: Form field: zone of inhibition at 100 µg/mL at least 20 mm? Entry: Cc1ccc2oc(=O)c3cc4c(nc3c2c1)CCC4
Response: Not fulfilled

* * *

Test system: Streptococcus pyogenes
Assay: Antibacterial activity against Streptococcus pyogenes ATCC 19615 after 24 to 48 hr by two-fold serial dilution method
Format: functional
assay_endpoint: log10 MIC (log10 of the value in mg/L)
// stored as log10 of MIC expressed in mg/L

Query: Any idea what log10 MIC was measured for O=c1oc2ccccc2c2nc3c(cc12)CCCC3 ?
Response: 1.70

Query: Any idea what log10 MIC was measured for O=c1oc2ccccc2c2nc3c(cc12)CCc1ccccc1-3 ?
Response: 1.10

Query: Any idea what log10 MIC was measured for Cc1ccc2oc(=O)c3cc4c(nc3c2c1)CCC4 ?
Response: 1.70

Query: Any idea what log10 MIC was measured for CC(=O)OCC1=C(C(=O)O)N2C(=O)[C@@H](NC(=O)Cc3cccs3)[C@H]2SC1 ?
Response: 0.80

Query: Any idea what log10 MIC was measured for O=c1oc2ccc(Cl)cc2c2nc3c(cc12)CCC3 ?
Response: 1.10

Query: Any idea what log10 MIC was measured for Cc1ccc2oc(=O)c3cc4c(nc3c2c1)-c1ccccc1CC4 ?
Response: 1.40

Query: Any idea what log10 MIC was measured for O=c1oc2ccc(Cl)cc2c2nc3c(cc12)CCc1ccccc1-3 ?
Response: 1.10

Query: Any idea what log10 MIC was measured for Cc1cccc2c1oc(=O)c1cc3c(nc12)-c1ccccc1CC3 ?
Response: 1.10

Query: Any idea what log10 MIC was measured for Cc1ccc2oc(=O)c3cc4c(nc3c2c1)CCCC4 ?
Response: 1.10

Query: Any idea what log10 MIC was measured for Cc1cccc2c1oc(=O)c1cc3c(nc12)CCC3 ?
Response: 1.10

Query: Any idea what log10 MIC was measured for Cc1cccc2c1oc(=O)c1cc3c(nc12)CCCC3 ?
Response: 1.40

Query: Any idea what log10 MIC was measured for O=C(N[C@H](CO)[C@H](O)c1ccc([N+](=O)[O-])cc1)C(Cl)Cl ?
Response: 0.49

Query: Any idea what log10 MIC was measured for O=c1oc2ccccc2c2nc3c(cc12)CCC3 ?
Response: 1.40

Query: Any idea what log10 MIC was measured for O=c1oc2ccc(Cl)cc2c2nc3c(cc12)CCCC3 ?
Response: 1.10

FYI, the data here is from ChEMBL document CHEMBL3046437.
